B1: TPR t1 (parent)
chain: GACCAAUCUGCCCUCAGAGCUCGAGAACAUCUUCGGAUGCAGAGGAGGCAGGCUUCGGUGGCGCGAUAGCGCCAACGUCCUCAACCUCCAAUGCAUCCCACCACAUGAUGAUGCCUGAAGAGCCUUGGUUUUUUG

- Variants of: B1
- protocol.details: polymerase ribozyme fitness, log enrichment relative to wild type (log ratio); higher = more active; in vitro selection for triplet polymerase activity
Bucketed by reported polymerase ribozyme fitness (log ratio), buckets being low-valued = under -4, mid-valued = from -4 up to -2, high-valued = -2 and over

- GACCAAUCUGCCCUCAGAGCUCGAGAUCAUCUUCGGAUGCAGAGGAGGCAGGCUUCGGCGGCGCGAUAGCGCCAACGUCCUCAACCUCCAAUGCAUCCCACCACAUGAUGAUGCCUGAAGAGCCUUGGUUUUUUG [A27U U59C]: mid-valued
- GACCAAUCUGCCCUCAGAGCUCGAGAACGUCUUCGGAUGCAGAGGAGGUAGGCUUCGGUGGCGCGAUAGCGCCAACGUCCUCAACCUCCAAUGCAUCCCACCACAUGAUGAUGCCUGAUAAGACUUGGUUUUUUG [A29G C49U A119U G120A C123A]: mid-valued
- GACCAAUCUGCCCUCAGAGCUCGAGGACAUCUUCGGAUGCAGAGGAGGCAGGCUUCGGUGGCGCGAUAGCGCAUACGACCUCAACCUCCAAUGCAUCCCACCACAUGAUGAUGCCUGAAGAGCCUUGGUUUUUUG [A26G C73A A74U U78A]: mid-valued
- GACCAAUCUGCCCUCAGAGCUCGAGAACAUCUUCGGAUGCAGAGGAGGCAGGCUUCGGUGGCGCGAUAGCGGCAACGUCCUCAACCUCCAAUGCAUCCCACCACAUGAUGAUGCCUGAAGAGGCUUGGUUUUUUG [C72G C123G]: high-valued
- GACCAAUCUGCCCUCAGAGCUCGAGAACAUCUUCGGAUGCAGAGUAGGCAGGCUUCGGUGGCUCGAUAGCGCCAACGUCCUCAGCCUCCAAUGCAUCCCACCACAUGAUGAUGCCUGAAGAGCCUUGGUUUUUUG [G45U G63U A84G]: mid-valued
- GAGCAAUCUGCCCUAAGAGCUGGAGAACAUCUUCGGAUGCAGAGGAGGCAGGCUUCGGUGGCGCGAUAGCGCCAACGUCCUCAACCUCCAAUGCAUCCCACCACAUGAUGAUGCUUGAAGAGCCUUGGUUUUUUG [C3G C15A C22G C115U]: low-valued
- GACCAAUCUGCACUCAGAGCUCGAGAACAUCUUCGGAUGCAGAGGAGGCAGGCUUCGGUGGCGCGAUAGCGCCAACGACCUCAACCUCCAAUGCAUCCCACCACAUGAUGAUGCCUGAAGAGCCUUGGUUUUUUG [C12A U78A]: high-valued
- GACCAAUCUGCCCUCAGAGCUCGAGAACAUCUUCGGAUGCAGAUGAGGCAGGCUUCGGUGGCGCGAUAGCCCCAACGUCCUCAACCUCCAAUGCAUCCCACCACAUGAUGAUGCCUGAAGAGCCUUGGUUUUUUG [G44U G71C]: mid-valued
- GACCAAUCUGCCCUCAGAGUUCGAGAACAUCUUCGGAUGCAGAGGAGGCAGGCUUCGGUGGCGCGAUAGCGCCAACGUCCUCAACCUCCAAUGCCUCCCACCACAUGAUGAUGCCUGAAGAGCCUUGGAUUUUUG [C20U A95C U129A]: mid-valued
- GACCAAUCUGCCCUCAUAGCUCGAGAACAUCUUCGGAUGCAGAGGAGGCAGGCUUCGGUGGCGCGAUAUCGCCAACGUCCUCAACCUCCAAUGCAUCCCACCACAUGAUGGUGCCUGAAGAGCCUUGGUUUUGUG [G17U G69U A111G U133G]: high-valued
- GACCAAUCUGCCCUCAGAGCUCGAGAACAUCUUCGGAUGCAGAGGAGGCAGGCUUGGGUGGCGCGCUAGCGCCAACGUCCUCAACCUCCAAUGCAUCCCACCACAUGAUGAUGCCUGAAGAGCCUUGGUUUUUUG [C56G A66C]: high-valued
- GACCAAUCUGCCCUCAGAGCUCGAGAACAUCUUCGGAUGCAGAGGAGGCAGGCUUCGGUGGCGCGAUAGCGCCAACGUCCUCAACCUCGAAUGCAUCCCACCACAUGAUGAUGCCUGAAGAGCAUUGGUUUUUUG [C89G C124A]: high-valued
- GACCAAUCUGCGCUCAGAGCUCGAGAAUAUCUUCGUAUGCAGAGGAGGCAGGCUUCGGUAGCGCGAUAGCGCCAACGUCCUCCACCUCCAAUGCAUUCCACCACAUGAUGAUGCCUGAAGAGCCUUGGUUUUUUG [C12G C28U G36U G60A A83C C97U]: mid-valued
- GACCAAUCUGCCCUCAGAGCUCGAGAACAUCUUCAGAUACAGAGGAGGCAGGCUUCGGUGGCGCGAUAGUGUCAACGUCCUCAACCUCCAAUGCAUCCCACCACAUGAGGAUGCCUGAAGAGCUUUGGUUUUUUG [G35A G39A C70U C72U U109G C124U]: low-valued
- GACCAAUCUGCCCUCAGAGCUCGAGAACAUCUUCGGAUGCAGAGGAGGCAUGCUUCGGUGGCGCGAUAGCGCCAACGUCUUCAACCUACAAUGCAUCCCACCACAUGAUGAUGCCUGAGGAGCCUUGGUUUUUUG [G51U C80U C88A A119G]: high-valued
- GACCAAUCUGCCCUCAGAGCUCGAGAACAUCUUCGGAUGCAGAGGAGGCAGGCUUCGGUGGCGCGAUAGCGGCAACGUCCUCAACCUCCAAUGCAUCCCACCACAUGAUGAUGCCUGAAGAACCUUGGUUUUUUG [C72G G122A]: high-valued
- GACCAAUCUGCCCUCAGAGCUCGAGAACAUUUUCGGAUACAGAGGAGGCAGGCUUCGGUGGCGCGAUAUCGCCAACGUCCUCAACCUCCAAUGCAUCCCACCACAUGAUGAUGCCUGAAUAGCCUUGGUUUUUUG [C31U G39A G69U G120U]: mid-valued
- GACCAAUCUGCCCACAGAGCUCGAGUACAUCUUCGGAUGCAGAGGAGGCAGGCUUCGGUGGCGCGAUAGCGCCAACGUCCUCAACCUCCAAUGCAUCCCACCACAUGAUGAUGCCUGAAGAGCCUUGGUUUUUUG [U14A A26U]: low-valued
- GACCAAUCUGCCCUCAGAGCUCGAGAACAUCUUCGGAUGCAGAGGAUGCAGGAUUCGGUGGCGCGAUAGCGCCAACGUCCUCAACCUCCAAUGCAUCCCACCACACGAUGAUGCCUGAAGAGCCUUGGUUUUUUG [G47U C53A U106C]: high-valued
- GACCAAUCUGCCCUCAGAGCUCGAGAACAUCUUCGGAUGCAGAGGAGGCAGGCUUCGGUGGAGCGAUAGCGCCAACGUCCUCAACCUCCAAUGCAUCCCACCACAUGAUGAUGCCUCAAGAGCCUUGGUUUUUUG [C62A G117C]: low-valued
- GACCAAUAUGCCCUCAGAGCUCGAGAACAUCUUCGGAUGCAGAGGAGGCAGGCUUCGGUGGCGCGAUAGCGCCAACGUCCUCAACCUCCAAUGCAUCCCACCACAUGAUGAUGCCUUAUGAGUCUUGGUUUUUUG [C8A G117U A119U C123U]: high-valued
- GACCAAUCUGCCCUCAGAGCUCGAGAAUAUCUUCGGAUCCAGAGGAGGCAGGCUUGGGUGGCGCGAUAGCGCCAACGUCCUCAACCUCCAAUGCAUCCCACCAUAUGAUGAUGCCUGAAGAGCCUUGGUUUUUUG [C28U G39C C56G C104U]: low-valued
- GACCAAUAUGCCCUCAGAGCUCGAGAACAUCUUCGGAUGCAGAGGAGGCAGGCUUCGGUGGCGCGAUAUCGCCAACGUCCUCAACCUCCAAUGCAUCCCACCACAUGAUGAUGCCUGAAGAGCCUUGGUUUUUUG [C8A G69U]: high-valued
- GACCAAUCUGCCUUCAGAGCUCGAGAACAUCUUCGGAUGCAGAGGAGGCAGGCUUCGGUGGCGCGAUAGCGCCAACGUCCUCAACCUCGAAUGCAUCCCACCACAUGAUGAUGCCUGAAGAGCCUUGGUUUUUUG [C13U C89G]: high-valued
- GACCAAUCUGCCCUCAGAGCUCGAGGAGAUCUUCGGAUGCAGAGGAGGCAGGCUUCGGUGGCGCGAUAGGGCCAACGUCCUCAAUCUCCAAUGCAUCUCACCACAUUAUGAUGCCUGAGGAACCUUGGUUUUUUG [A26G C28G C70G C85U C98U G107U A119G G122A]: low-valued
- GACCAAUCUGCCCUCAGAGCUCGAGAACAUCUUCGGAUGCAGAGGAGGCAGGCUUCGGUGGCGCGAUAGCGCCAACGUCCUCAACCUCCAAUGCAUCCCACCACAUGAUGUUCCGUGAAGAGCCUUGGUUUUUUG [A111U G113C C115G]: low-valued
- GACCAAUCUGCCCUCAGACCUCGAGAACAUCUUCGGAUGCACAGGAGGCAGGCUUCGGUGGCGCGAUAGCGCCAACGUCCUCAACCUCCAAUGCAUCCCACCACAUGAUGAUGCCUGAAGAGCGUUGGUUUUUUG [G19C G42C C124G]: high-valued
- GACCAAUCUGCCCUCAGAGCUCGAGAACAUCUUCGGAUGCAGAGGAGGCAUGCUUCGGUGGCGCGAUAGCGCCAACGUCCUCAACCUCCAAUGCAUUCCACCACAUGAUGAUGCCUGAAGAGCCUUGGUUUAUUG [G51U C97U U132A]: mid-valued
- GACCAAUCUGCCCUCAGAGCUCGGGAACAUCUUCGGAUGCAGAGGUGGCAGGCUUCGGUGGGGCGAUAGCGCCAACGUCCUCAACCUCCAAUGCAUCCCACCACAUGAUGAUGCCUGAAGAGCCUUGGUUUUUUG [A24G A46U C62G]: low-valued
- GACCAAUCUGCUCUCAGAGUUCGAGAACAUCUUCGGAUGCAGAGGAGGCAGGCUUCGGUGGCGCGAUAGCGCCAACGUCCUCAACCUCCAAUGCACCCCACCACAUGAUGAUGCCUGAAGAGCCUUGGUUUUUUG [C12U C20U U96C]: high-valued
- GACCAAUCUGCCCUAAGAGCUCGAGAACAUCUUCGGAUGCAGAGGAGGCAGGCUUCGGUGGCGCGAUAGCGCCAAUGUACUCAACCUCCAAUGCAUCCCACCAAAUGAUGAUGCCUGAAGAGACUUGGUUUUUUG [C15A C76U C79A C104A C123A]: low-valued
- GACCAAUCUGCCCUCAGAGCUCGAGAACAUCUUCGGAUGCGGAGGAGGCAGGCUUCGGUGGCGCGAUAGCGCCAACGUCCUCCACCUCCAAUGCAUCUCACCACAUGAUGAUGCCUGAAGAGCCUUGGUUUUUUG [A41G A83C C98U]: high-valued
- GACCAAUCUGCCCUCAGAGCUCGAGAACGUCUUCGGAUGCAGAGGAGGCAGGCUUCGGUGGCGCGAUAGCGCCAACGUCCUCAACCUCCAAUGCAUCCCAACACAUGAUGAUGCCUGUAGAGCCUUGGUUUUUUG [A29G C101A A118U]: mid-valued
- GACCAAUCUGCCCUCAGAGCUCGAGAACAUCUUCGGAUGCAGAGGAGGCAGGUUUCGGUGGCGCGAUAGCGCCAACGUCCUCAACCUCCAUUGCAUCCCACCACAUGAUGAUGCCUGAAGAGACUUGGUUUUUUG [C53U A91U C123A]: high-valued
- GACCAAUCUGCCCUCAGAGCUCGAGAACAUCUUCGGAUGCAGUGGAGGCAGGCUUCGGUGGCGCGAUAGCGCCAACGUCCUCAACCGCCACUGCGUCCCACCACAUGAUGAUGCCUGGAGAGCCUUGGUUUUUUG [A43U U87G A91C A95G A118G]: high-valued
- GACCAAUCUGCCCUCAGAGCUCGAGAACAUCUUCGGAUGCAGAGUAGGCAGGCUUCGGUGUCCCGAUAGCGCCAACGUCCUCAACCUCCACUGCGUCCCACCACAUGAUCAUGCCUGAAGAGCCUUGGUUUUUUG [G45U G61U G63C A91C A95G G110C]: low-valued
- GACCAAUCUGCCCACAGAGCUCGAGAACAUCUUCGGCUGAAGAGGAGGCAGGCUUCGGUGGCGCGAUAUCGCCAACGUCCUCAACCUCCAAUGCAUCCCACCACAUGAUGAUGCCUGAAGAGCCUUGGUUUUUUG [U14A A37C C40A G69U]: low-valued
- GACGAAUCUGCCCUCAGAGCUCGAGAACAUCUUAGGAUGCAGAGGAGGCAGGCUUCGGUGGCGCGAUAUCGCCAACGUCCUCAACCUCCAAUGCAUUCCACCACAUGAUGAUGACUGAAGAUACUUGGUUUUUUG [C4G C34A G69U C97U C114A G122U C123A]: mid-valued
- GACCAAUCUGCCCUCAGAGCUCGAGAACAUCUUCGGAUGCAGAGGUGGCAGGCUUGGGUGGCGCGAUAGCGCCAACGUCCUCAACCUCCAAUGCAUCCCACCACAUGAUGAUGCCUGAACAGCCUUGGUUUUUUG [A46U C56G G120C]: high-valued
- GACCAAUCUGCUCACAGAGCUCGAGAACAUCUUCGGAUGCAGAGGAGGCAGGCUUCGGUGGCGUGAUAGCGCCAACGUCCUCAACCUCCAAUGCAUCCCACCACAUGAUUAUACCUGAAGAGCCUUGGUCUUUUG [C12U U14A C64U G110U G113A U130C]: low-valued
- GACCAAUCUGCCCUCAGAGCUCGAGAACAUCUUCGGAUGCAGAGGAGGAAGGCUUCGGUGGUGCGGUAGCGCCAACGUCCUCAACCUCCAAUGCAUCCCACCACAUGAUGAUGCCUGAAGAGCCUUGGUUUUUUG [C49A C62U A66G]: high-valued
